Target: Mitotic checkpoint serine/threonine-protein kinase BUB1 (Homo sapiens); also: in the data inactive means no Kd found up to 30 µM
Sequence (O43683 whole entry): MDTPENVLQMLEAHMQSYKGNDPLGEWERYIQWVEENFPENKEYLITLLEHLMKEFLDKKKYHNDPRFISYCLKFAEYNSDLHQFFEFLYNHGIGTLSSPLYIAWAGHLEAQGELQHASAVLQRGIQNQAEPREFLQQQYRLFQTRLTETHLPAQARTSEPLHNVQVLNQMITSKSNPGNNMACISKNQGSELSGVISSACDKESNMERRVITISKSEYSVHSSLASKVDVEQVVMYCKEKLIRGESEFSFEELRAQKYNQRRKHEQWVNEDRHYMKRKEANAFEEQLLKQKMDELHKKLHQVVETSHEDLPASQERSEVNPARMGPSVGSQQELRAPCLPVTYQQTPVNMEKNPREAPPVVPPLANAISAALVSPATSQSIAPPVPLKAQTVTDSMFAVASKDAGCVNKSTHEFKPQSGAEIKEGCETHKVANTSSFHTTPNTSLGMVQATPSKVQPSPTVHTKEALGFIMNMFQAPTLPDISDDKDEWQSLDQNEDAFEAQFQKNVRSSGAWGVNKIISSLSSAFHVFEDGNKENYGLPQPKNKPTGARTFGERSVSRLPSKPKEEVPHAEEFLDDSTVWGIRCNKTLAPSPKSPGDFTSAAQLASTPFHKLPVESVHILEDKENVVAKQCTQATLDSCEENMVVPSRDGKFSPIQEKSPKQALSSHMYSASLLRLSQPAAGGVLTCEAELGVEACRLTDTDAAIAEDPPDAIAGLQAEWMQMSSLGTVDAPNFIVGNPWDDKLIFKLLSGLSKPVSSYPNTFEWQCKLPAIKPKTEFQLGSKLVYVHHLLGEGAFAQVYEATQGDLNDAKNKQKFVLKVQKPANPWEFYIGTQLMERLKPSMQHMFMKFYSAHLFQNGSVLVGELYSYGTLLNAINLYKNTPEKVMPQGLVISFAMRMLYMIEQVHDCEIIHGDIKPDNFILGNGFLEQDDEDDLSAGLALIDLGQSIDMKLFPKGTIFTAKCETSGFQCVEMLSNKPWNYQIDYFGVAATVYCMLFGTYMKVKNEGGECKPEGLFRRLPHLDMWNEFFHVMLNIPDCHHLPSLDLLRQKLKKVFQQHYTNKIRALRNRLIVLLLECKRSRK
The source made the active and inactive calls.
readout: Kd

[[record]]
compound = "N#CC1(c2ccc(NC(=O)c3cccnc3NCc3ccncc3)cc2)CCCC1 [RIVOCERANIB]"
observedvalue = "> 30 µM (inactive)"

[[record]]
compound = "COc1ccc(S(=O)(=O)N(C(C)=O)c2ccccc2/C=C/c2cc[n+]([O-])cc2)cc1 [HMN-214]"
observedvalue = "> 30 µM (inactive)"

[[record]]
compound = "COc1cc(Nc2ncc3c(n2)-c2ccc(Cl)cc2C(c2c(F)cccc2OC)=NC3)ccc1C(=O)O [ALISERTIB]"
observedvalue = "> 30 µM (inactive)"

[[record]]
compound = "C[C@@H](NC(=O)c1ncnc(N)c1Cl)c1ncc(C(=O)Nc2cc(C(F)(F)F)c(Cl)cn2)s1 [TOVORAFENIB]"
observedvalue = "> 30 µM (inactive)"

[[record]]
compound = "C=CC(=O)Nc1cc2c(Nc3ccc(F)c(Cl)c3)ncnc2cc1C#CC(C)(C)N1CCN(C)CC1 [AV-412 FREE BASE]"
observedvalue = "> 30 µM (inactive)"

[[record]]
compound = "CO[C@H]1C[C@@H]2CC[C@@H](C)[C@@](O)(O2)C(=O)C(=O)N2CCCC[C@H]2C(=O)O[C@H]([C@H](C)C[C@@H]2CC[C@@H](OP(C)(C)=O)[C@H](OC)C2)CC(=O)[C@H](C)/C=C(\\C)[C@@H](O)[C@@H](OC)C(=O)[C@H](C)C[C@H](C)/C=C/C=C/C=C/1C [RIDAFOROLIMUS]"
observedvalue = "> 30 µM (inactive)"

[[record]]
compound = "CNC(=O)c1cccc2cc(Oc3ccnc4cc(OCC5(N)CC5)c(OC)cc34)ccc12 [LUCITANIB]"
observedvalue = "> 30 µM (inactive)"

[[record]]
compound = "CC(=O)NCC(=O)N1[C@@H]2CC[C@H]1c1ccc(Nc3ncc(C(F)(F)F)c(NC4CCC4)n3)cc12 [PF-03814735]"
observedvalue = "> 30 µM (inactive)"

[[record]]
compound = "COCC(=O)NC/C=C/c1ccc2ncnc(Nc3ccc(Oc4ccc(C)nc4)c(C)c3)c2c1 [CP-724714]"
observedvalue = "> 30 µM (inactive)"

[[record]]
compound = "C[C@@H](N)c1ccc(C(=O)Nc2ccnc3[nH]ccc23)cc1 [Y-39983]"
observedvalue = "> 30 µM (inactive)"

[[record]]
compound = "O=C(Cc1ccc(-c2ccc(OCCN3CCOCC3)cc2)cn1)NCc1ccccc1 [TIRBANIBULIN]"
observedvalue = "> 30 µM (inactive)"

[[record]]
compound = "CO[C@H]1C[C@@H]2CC[C@@H](C)[C@@](O)(O2)C(=O)C(=O)N2CCCC[C@H]2C(=O)O[C@H]([C@H](C)C[C@@H]2CC[C@@H](OC(=O)C(C)(CO)CO)[C@H](OC)C2)CC(=O)[C@H](C)/C=C(\\C)[C@@H](O)[C@@H](OC)C(=O)[C@H](C)C[C@H](C)/C=C/C=C/C=C/1C [TEMSIROLIMUS]"
observedvalue = "> 30 µM (inactive)"

[[record]]
compound = "Nc1ncnc2c1c(-c1cccc(OCc3ccccc3)c1)cn2[C@H]1C[C@@H](CN2CCC2)C1 [AEW-541]"
observedvalue = "> 30 µM (inactive)"

